# system-under-test: EML4-ALK (Homo sapiens, UniProt Q9UM73+Q9HC35)
# Sequence (Q9UM73 whole entry, the tested form may be a part): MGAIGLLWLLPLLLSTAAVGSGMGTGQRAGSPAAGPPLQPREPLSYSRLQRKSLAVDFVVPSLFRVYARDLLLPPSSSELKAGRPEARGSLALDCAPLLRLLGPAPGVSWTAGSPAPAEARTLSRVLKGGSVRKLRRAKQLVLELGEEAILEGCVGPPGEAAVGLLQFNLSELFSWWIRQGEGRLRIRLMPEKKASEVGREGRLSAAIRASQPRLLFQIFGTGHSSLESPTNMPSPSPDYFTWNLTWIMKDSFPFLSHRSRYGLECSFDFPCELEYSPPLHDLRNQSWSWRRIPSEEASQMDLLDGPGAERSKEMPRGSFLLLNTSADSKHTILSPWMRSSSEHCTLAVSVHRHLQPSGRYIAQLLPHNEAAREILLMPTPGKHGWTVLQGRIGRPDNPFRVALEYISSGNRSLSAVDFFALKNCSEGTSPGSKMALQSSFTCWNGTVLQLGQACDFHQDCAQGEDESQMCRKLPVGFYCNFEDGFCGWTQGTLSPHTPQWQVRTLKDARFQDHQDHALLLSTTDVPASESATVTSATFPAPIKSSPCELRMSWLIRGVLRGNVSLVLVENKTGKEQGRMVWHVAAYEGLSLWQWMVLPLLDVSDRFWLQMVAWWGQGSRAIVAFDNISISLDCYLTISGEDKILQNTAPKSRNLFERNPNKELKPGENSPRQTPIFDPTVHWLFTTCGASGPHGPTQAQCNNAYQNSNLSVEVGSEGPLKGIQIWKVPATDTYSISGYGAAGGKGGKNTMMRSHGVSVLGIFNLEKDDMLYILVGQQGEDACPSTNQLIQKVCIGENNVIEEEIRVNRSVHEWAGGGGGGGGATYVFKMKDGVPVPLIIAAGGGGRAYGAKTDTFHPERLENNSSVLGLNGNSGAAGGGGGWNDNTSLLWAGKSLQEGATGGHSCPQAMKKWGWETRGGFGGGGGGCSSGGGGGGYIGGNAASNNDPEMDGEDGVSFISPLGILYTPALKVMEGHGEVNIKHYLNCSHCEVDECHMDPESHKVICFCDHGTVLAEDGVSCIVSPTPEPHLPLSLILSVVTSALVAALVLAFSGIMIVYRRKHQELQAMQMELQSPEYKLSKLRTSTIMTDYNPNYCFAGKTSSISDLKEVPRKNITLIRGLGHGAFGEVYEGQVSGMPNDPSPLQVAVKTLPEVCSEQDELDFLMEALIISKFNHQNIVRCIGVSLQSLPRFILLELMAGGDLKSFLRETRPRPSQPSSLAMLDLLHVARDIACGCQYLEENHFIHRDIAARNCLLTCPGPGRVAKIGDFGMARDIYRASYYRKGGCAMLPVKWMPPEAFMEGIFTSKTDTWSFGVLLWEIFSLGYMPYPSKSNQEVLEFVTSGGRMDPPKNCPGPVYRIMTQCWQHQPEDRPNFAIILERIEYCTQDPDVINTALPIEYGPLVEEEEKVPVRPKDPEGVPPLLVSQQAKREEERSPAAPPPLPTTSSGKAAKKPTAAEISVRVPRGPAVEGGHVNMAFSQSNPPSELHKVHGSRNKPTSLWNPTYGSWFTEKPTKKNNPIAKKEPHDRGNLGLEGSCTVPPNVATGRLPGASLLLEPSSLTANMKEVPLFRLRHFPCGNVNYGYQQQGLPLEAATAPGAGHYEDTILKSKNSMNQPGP
# Sequence (Q9HC35 whole entry, the tested form may be a part): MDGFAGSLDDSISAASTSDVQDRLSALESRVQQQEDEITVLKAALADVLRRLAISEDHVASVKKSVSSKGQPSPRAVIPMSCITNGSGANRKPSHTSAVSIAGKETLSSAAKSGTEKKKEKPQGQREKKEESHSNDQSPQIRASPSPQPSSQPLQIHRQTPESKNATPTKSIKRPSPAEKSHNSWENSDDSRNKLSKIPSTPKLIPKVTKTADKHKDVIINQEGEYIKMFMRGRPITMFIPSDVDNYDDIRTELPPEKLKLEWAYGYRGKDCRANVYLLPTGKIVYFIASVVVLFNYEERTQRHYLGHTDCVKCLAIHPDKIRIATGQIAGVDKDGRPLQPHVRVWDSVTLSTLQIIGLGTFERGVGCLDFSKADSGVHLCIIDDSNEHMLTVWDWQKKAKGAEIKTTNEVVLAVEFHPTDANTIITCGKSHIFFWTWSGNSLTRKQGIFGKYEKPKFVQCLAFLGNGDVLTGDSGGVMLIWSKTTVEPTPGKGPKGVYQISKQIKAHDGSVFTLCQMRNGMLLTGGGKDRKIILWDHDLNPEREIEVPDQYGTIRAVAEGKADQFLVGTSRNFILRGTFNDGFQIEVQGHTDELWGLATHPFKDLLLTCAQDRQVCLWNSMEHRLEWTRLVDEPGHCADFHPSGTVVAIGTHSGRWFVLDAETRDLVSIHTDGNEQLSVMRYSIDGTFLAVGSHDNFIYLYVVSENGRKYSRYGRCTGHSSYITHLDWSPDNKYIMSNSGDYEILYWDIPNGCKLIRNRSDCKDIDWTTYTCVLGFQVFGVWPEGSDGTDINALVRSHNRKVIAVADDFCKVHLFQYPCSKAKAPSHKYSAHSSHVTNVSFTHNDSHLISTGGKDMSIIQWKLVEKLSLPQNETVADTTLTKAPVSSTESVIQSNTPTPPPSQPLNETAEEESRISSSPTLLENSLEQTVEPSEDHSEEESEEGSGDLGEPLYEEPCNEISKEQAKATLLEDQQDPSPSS
# assay-remarks: Inhibition of recombinant FLAG-tagged EML4-ALK fusion protein (unknown origin) expressed in mouse BA/F3 cells assessed as inhibition of cell growth incubated for 2 days by alamar blue dye based assay
reported-endpoint: IC50 (nM)
Write down the numeric answer in nM and omit the unit.

`CCc1nc(C(N)=O)c(Nc2ccc3cnn(C)c3c2)nc1N[C@H]1CC[C@H](O)CC1` yielded IC50 of 76

* * *

# system-under-test: EML4-ALK (Homo sapiens, UniProt Q9UM73)
# assay-remarks: Inhibition of recombinant FLAG-tagged EML4-ALK fusion protein (unknown origin) expressed in mouse BA/F3 cells using peptide substrate and ATP incubated for 1 hr by HTRF assay
reported-endpoint: IC50 (nM)

CCc1nc(C(N)=O)c(Nc2ccc(N3CCC(N4CCN(C)CC4)CC3)c(C)c2)nc1N[C@H]1CC[C@](O)(C(C)C)CC1 = 2.6
CCc1nc(C(N)=O)c(Nc2ccc(N3CCC(N4CCN(C)CC4)CC3)c(C)c2)nc1N[C@H]1CC[C@@](O)(C(C)C)CC1 = 4.1
CCc1nc(C(N)=O)c(Nc2ccc(N3CCC(N4CCN(C)CC4)CC3)c(C)c2)nc1N[C@H]1CC[C@@](O)(CC)CC1 = 2.8
CCc1nc(C(N)=O)c(Nc2ccc(N3CCC(N4CCN(C)CC4)CC3)c(C)c2)nc1N[C@H]1CC[C@](O)(CC)CC1 = 3.1

All values here come from ChEMBL document CHEMBL4418479.
